Sourced from patent US11535598B2

// reported IC50 for each item listed
test system: U87MG; experiment: Cell proliferation assay MTT, U87MG; settings: read-out: Cytotoxicity IC50 Glioblastoma U87MG, 72 hr treated

Worked examples, 3 molecules total:
molecule=O=C(NO)c1ccc(Cn2c(=O)n(CCc3ccccc3)c(=O)c3ccc(C(F)(F)F)cc32)cc1 observed_result="5.87 µM"
molecule=O=C(NO)c1ccc(Cn2c(=O)n(CCc3ccccc3)c(=O)c3ccccc32)cc1 observed_result="1.56 µM"
molecule=COc1ccccc1CCn1c(=O)c2ccccc2n(Cc2ccc(C(=O)NO)cc2)c1=O observed_result="7.08 µM"

May I ask what IC50 has been recorded for "O=C(NO)c1ccc(Cn2c(=O)n(CCc3ccccc3)c(=O)c3cc(Cl)ccc32)cc1" ? 2.26 µM

May I ask what IC50 has been recorded for "N#Cc1ccc2c(=O)n(CCc3ccccc3)c(=O)n(Cc3ccc(C(=O)NO)cc3)c2c1" ? > 10 µM

May I ask what IC50 has been recorded for CN1CCc2c(c3ccccc3n2Cc2ccc(C(=O)NO)cc2)C1 [Tubastatin A, reference compound] ? > 10 µM
